Could you please report measured inhibition at 8 µM for the items listed next?
system: Huh-7; assay: cells; details: Homo sapiens, Huh-7, 48 h, read-out: INH
Description: Anticancer activity against human Huh-7 cells assessed as inhibition of cell viability at 8 uM incubated for 48 hrs by CCK-8 assay (Rvb = 0 +/- 0.88 %)
Report as a plain number; the unit % is understood.

Query: Which inhibition at 8 µM value belongs to O=C(Nc1ccccc1)Nc1ccc2nc(-c3ccco3)c(-c3ccco3)nc2c1 ?
Response: 24.2

Query: Which inhibition at 8 µM value belongs to O=[N+]([O-])c1ccc(CNC(=S)Nc2ccc3nc(-c4ccco4)c(-c4ccco4)nc3c2)cc1 ?
Response: 19.4

Query: Which inhibition at 8 µM value belongs to Fc1ccc(CNC(=S)Nc2ccc3nc(-c4ccc(Br)s4)c(-c4ccc(Br)s4)nc3c2)cc1 ?
Response: 28.5

Query: Which inhibition at 8 µM value belongs to Fc1ccc(CNC(=S)Nc2ccc3nc(-c4cccs4)c(-c4cccs4)nc3c2)cc1 ?
Response: 41.8

Query: Which inhibition at 8 µM value belongs to CCCCNC(=S)Nc1ccc2nc(-c3ccco3)c(-c3ccco3)nc2c1 ?
Response: 30.7

Query: Which inhibition at 8 µM value belongs to S=C(Nc1ccc2nc(-c3ccco3)c(-c3ccco3)nc2c1)Nc1ccccn1 ?
Response: 16

Query: Which inhibition at 8 µM value belongs to S=C(Nc1ccc2nc(-c3ccc(Br)o3)c(-c3ccc(Br)o3)nc2c1)N1CCCCCC1 ?
Response: 25.8

Query: Which inhibition at 8 µM value belongs to S=C(Nc1ccc2nc(-c3ccco3)c(-c3ccco3)nc2c1)N1CCOCC1 ?
Response: 30

Query: Which inhibition at 8 µM value belongs to S=C(Nc1ccc2nc(-c3ccco3)c(-c3ccco3)nc2c1)N1CCCCCC1 ?
Response: 33.3

Query: Which inhibition at 8 µM value belongs to S=C(NCc1ccccn1)Nc1ccc2nc(-c3ccccn3)c(-c3ccccn3)nc2c1 ?
Response: 30.3
